# TESTED_SYSTEM: TRIM25 WT (human, UniProt Q14258 1-630)
# Sequence (Q14258 whole entry): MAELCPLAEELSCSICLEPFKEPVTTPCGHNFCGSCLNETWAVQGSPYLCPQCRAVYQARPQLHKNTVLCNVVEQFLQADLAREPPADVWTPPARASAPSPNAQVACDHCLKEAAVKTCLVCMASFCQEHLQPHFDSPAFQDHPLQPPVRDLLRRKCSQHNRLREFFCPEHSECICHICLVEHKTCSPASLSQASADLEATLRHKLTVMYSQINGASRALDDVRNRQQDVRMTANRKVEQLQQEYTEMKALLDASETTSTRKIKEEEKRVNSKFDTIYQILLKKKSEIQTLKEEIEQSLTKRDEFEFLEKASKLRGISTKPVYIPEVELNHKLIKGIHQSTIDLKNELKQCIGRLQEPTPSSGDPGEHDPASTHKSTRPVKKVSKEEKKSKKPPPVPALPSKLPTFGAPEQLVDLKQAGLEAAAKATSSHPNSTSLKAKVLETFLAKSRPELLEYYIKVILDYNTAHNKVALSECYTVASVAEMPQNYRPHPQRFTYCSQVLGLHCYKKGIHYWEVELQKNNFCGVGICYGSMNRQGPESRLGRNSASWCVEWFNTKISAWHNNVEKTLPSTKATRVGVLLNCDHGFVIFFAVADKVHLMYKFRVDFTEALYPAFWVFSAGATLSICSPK
# RUN_DESCRIPTION: EMSA
READOUT: pKd
Scale: pKd equals -log10([C]), with [C] in mol/L.

Q: Find the recorded pKd belonging to 28-bp dsRNA, fluorescent (dsRNA) RNA 1: AUGGCUAGCUGGAGCCACCCGCAGUUCG RNA 2: CGAACUGCGGGUGGCUCCAGCUAGCCAU and report it.
Ans: 6.59
